- study-system: Retinoic acid receptor RXR-alpha (Homo sapiens) (UniProt P19793)
- Sequence (P19793 whole entry, looked up): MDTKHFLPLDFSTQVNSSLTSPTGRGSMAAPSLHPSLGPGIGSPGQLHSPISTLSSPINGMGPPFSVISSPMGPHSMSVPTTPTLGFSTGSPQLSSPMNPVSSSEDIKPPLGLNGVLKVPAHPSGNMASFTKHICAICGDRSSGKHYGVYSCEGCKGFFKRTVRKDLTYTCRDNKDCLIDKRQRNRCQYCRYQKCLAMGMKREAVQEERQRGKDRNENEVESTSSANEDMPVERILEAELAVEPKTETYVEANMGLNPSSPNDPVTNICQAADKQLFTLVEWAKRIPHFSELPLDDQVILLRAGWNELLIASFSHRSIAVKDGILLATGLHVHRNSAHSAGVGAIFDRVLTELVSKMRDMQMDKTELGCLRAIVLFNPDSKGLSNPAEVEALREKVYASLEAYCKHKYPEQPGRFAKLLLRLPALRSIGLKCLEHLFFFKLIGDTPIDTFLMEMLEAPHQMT
experimental-readout: pIC50
The meaning of pIC50 here: minus log10 of the concentration in molar units.

Incoming: Which pIC50 value belongs to CC1=C[C@H](O)CC(C)(C)[C@H]1/C=C/C(C)=C/C=C/C(C)=C/C=C/C=C(C)/C=C/C=C(C)/C=C/C1=C(C)C[C@@H](O)CC1(C)C ?
Outgoing: 5.24

The values you see were collected from PubChem BioAssay AID1159611.
